Target: UniProt P10636
Experiment: MCE Phenols Library screening, tau biosensor cell seeding assay (AvZ)
Type: cell-based
Conditions: average puncta of the two replicates
Parameter measured: av puncta
Numbers only.

Compound	av puncta
C[C@@H]1CC(=O)c2c(ccc3c2C(=O)c2cccc(O)c2C3=O)C1	12471.4
COc1cc(CCC(O)CC(O)CCc2ccc(O)c(OC)c2)ccc1O (stereo not shown) [Octahydrocurcumin]	15871.9
OC[C@H]1O[C@@H](Oc2cc3c(O)cc(O)cc3[o+]c2-c2ccc(O)c(O)c2)[C@H](O[C@@H]2OC[C@@H](O)[C@H](O)[C@H]2O)[C@@H](O)[C@@H]1O.[Cl-] [Cyanidin 3-sambubioside (chloride)]	13432.8
Cc1cccc(O)c1O	14763.7
COC(=O)Cc1ccc(O)cc1 [Methyl 4-hydroxyphenylacetate]	12741.3
NCc1ccc(O)cc1 [4-Hydroxybenzylamine]	12984.9
COc1cc(CC(=O)C(=O)O)ccc1O	15824.3
C=CCc1ccc(O)c(OC)c1	12641.9

For each of the items listed, what is its av puncta?
1. CC(C)=CCc1c(O)cc2oc3cc(O)c(O)c(CC=C(C)C)c3c(=O)c2c1O
2. Cc1c(C)c2c(c(C)c1O)CC[C@@](C)(CCC[C@H](C)CCC[C@H](C)CCCC(C)C)O2
3. Cc1c(O)c(C)c2c(c1O)C(=O)C[C@@H](c1ccc(O)cc1)O2
4. COc1cc2c(=O)c(-c3ccc(O)cc3)coc2cc1O[C@@H]1O[C@H](COC(C)=O)[C@@H](O)[C@H](O)[C@H]1O
5. COc1cc2ccc(=O)oc2c(O[C@@H]2O[C@H](CO)[C@@H](O)[C@H](O)[C@H]2O)c1O

**A:**
16310.3
15958
13173.8
16095.7
17088

For each of the items listed, what is its av puncta?
1. O=C(O)[C@H]1O[C@@H](Oc2cc(O)c3c(=O)cc(-c4ccc(O)c(O)c4)oc3c2)[C@H](O)[C@@H](O)[C@@H]1O [Luteolin 7-O-glucuronide]
2. COc1cc2cc(Oc3ccc4ccc(=O)oc4c3)c(=O)oc2cc1O
3. O=C1C[C@@H](c2ccc(O)c(O)c2)Oc2c1ccc(O[C@@H]1O[C@H](CO)[C@@H](O)[C@H](O)[C@H]1O)c2O

**A:**
1: 15884.9; 2: 17173.7; 3: 11525.3

For each of the items listed, what is its av puncta?
1. Cc1cc(=O)oc2cc(O)ccc12
2. COc1cc(O)c2c(=O)cc(-c3ccc(O)c(O)c3)oc2c1 [Hydroxygenkwanin]
3. O=c1c(O)c(-c2cc(O)c(O)c(O)c2)oc2cc(O)ccc12
4. COc1cc2c(cc1O)-c1c(OC)c(O)cc3c1[C@H](C2)NCC3
5. OCCc1ccc(O)c(O)c1 [Hydroxytyrosol]
6. COc1ccc(-c2oc3c(CC=C(C)C)c(O)cc(O)c3c(=O)c2O[C@@H]2O[C@@H](C)[C@H](O)[C@@H](O)[C@H]2O[C@@H]2O[C@H](CO)[C@@H](O)[C@H](O)[C@H]2O)cc1 [Sagittatoside A]
7. COc1cc(O)c2c(=O)c(OC)c(-c3ccc(OC)c(OC)c3)oc2c1

**A:**
12140.1
14482.9
12124.5
15544.8
15851.9
14630.2
14132.2

For each of the items listed, what is its av puncta?
1. O=C(O[C@H](Cc1ccc(O)c(O)c1)C(=O)O)C1=Cc2cc(O)c(O)cc2[C@H](c2ccc(O)c(O)c2)[C@H]1C(=O)OC(Cc1ccc(O)c(O)c1)C(=O)O (stereo in doubt)
2. COc1cc(/C=C/c2ccc(O)cc2)cc(OC)c1
3. Oc1cc(O)c2c(c1)O[C@H](c1ccc(O)c(O)c1)[C@@H](O)C2
4. Cc1cc(O)c2c(=O)c3c(O)cc(O)c4c5c(O)cc(O)c6c(=O)c7c(O)cc(C)cc7c(c65)c(c2c1)c34
5. O=C(CCc1ccc(O)cc1)c1c(O)cc(O)cc1O[C@@H]1O[C@H](CO)[C@@H](O)[C@H](O)[C@H]1O
6. Oc1cc(O)c2c(c1)O[C@H](c1cc(O)c(O)c(O)c1)[C@H](O)C2 [(-)-Epigallocatechin]
7. COC(=O)c1c(C)cc(OC(=O)c2c(C)cc(O)c(C=O)c2O)c(C)c1O

**A:**
1: 15561.2; 2: 12114.4; 3: 13513.8; 4: 11323.3; 5: 16285.7; 6: 16761.1; 7: 13136.9

**Q:** # get_value(readout='av puncta', item= COc1cc(O)c2c(=O)c(O[C@@H]3O[C@H](CO)[C@@H](O)[C@H](O)[C@H]3O)c(-c3ccc(O[C@@H]4O[C@H](CO)[C@@H](O)[C@H](O)[C@H]4O)cc3)oc2c1 [Complanatuside] )
**A:** 15089

----------
Molecular target: tau (Homo sapiens)
Assay: MCE Phenols Library screening, tau biosensor cell seeding assay (AvZ)
Type: cell-based
Conditions: raw puncta, replicate 1
Parameter measured: raw data 1

> print(dat)
                                   compound      assayed.system  parameter.measured  measured.result
1  C[C@@H]1O[C@@H](Oc2c(-c3ccc(O)c(O)c3)oc3cc(O)cc(O)c3c2=O)[C@H](O)[C@H](O)[C@H]1O  tau (Homo sapiens)          raw data 1          25279.8
2                 COc1cc(CC(=O)C(=O)O)ccc1O  tau (Homo sapiens)          raw data 1          26811.5
3  CC[C@H]1CN2CCc3cc(OC)c(OC)cc3[C@@H]2C[C@@H]1C[C@H]1NCCc2cc(O)c(OC)cc21.Cl.Cl [Cephaeline (dihydrochloride)]  tau (Homo sapiens)          raw data 1          23925.6

Attention now turns to another entry.
**Q:** # get_value(readout='raw data 1', item= `Oc1cc(O)cc(/C=C/c2ccc(O)cc2O)c1` )
**A:** 26923.9

----------
Molecular target: tau (Homo sapiens, UniProt P10636)
Sequence (P10636 623-695 limits assumed): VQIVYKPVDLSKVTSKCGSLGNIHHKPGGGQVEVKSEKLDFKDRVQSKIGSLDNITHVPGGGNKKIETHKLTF
Test: MCE Phenols Library screening, tau biosensor cell seeding assay (AvZ)
Type: cell-based
Settings: average of raw data 1 and 2
Binary call on av puncta with cut-off 20000: strictly below means Met, and equality or higher means Not met.

Here are 4 compounds together with their reported answers.
> print(dat)
                                   compound  category
1  COc1c(O[C@@H]2O[C@H](C(=O)O)[C@@H](O)[C@H](O)[C@H]2O)cc2oc(-c3ccccc3)cc(=O)c2c1O [Oroxylin A-7-O-glucuronide]   Not met
2  O=C(CCCCCCCCc1ccc(O)c(O)c1)c1c(O)cccc1O [Malabaricone C]       Met
3  COc1ccc(-c2coc3cc(O[C@@H]4O[C@H](CO)[C@@H](O)[C@H](O)[C@H]4O)ccc3c2=O)cc1O [Calycosin-7-O-?-D-glucoside]   Not met
4  O=c1c(O)c(-c2ccc(O)c(O)c2)oc2cc(O[C@@H]3O[C@H](CO)[C@@H](O)[C@H](O)[C@H]3O)c(O)c(O)c12 [Quercetagitrin]       Met

**Q:** State whether 20000 exceeds av puncta recorded for O=C1c2ccccc2C(=O)c2c1cc(O)c(CO)c2O [Lucidin] .
**A:** Met

**Q:** State whether 20000 exceeds av puncta recorded for COc1cc([C@@H]2c3cc4c(cc3C[C@H]3COC(=O)[C@@H]32)OCO4)cc(OC)c1OC [Deoxypodophyllotoxin] .
**A:** Not met

**Q:** State whether 20000 exceeds av puncta recorded for O=C(O)c1cc(O)c2c(c1)C(=O)c1cccc(O[C@@H]3O[C@H](CO)[C@@H](O)[C@H](O)[C@H]3O)c1C2=O [Rhein 8-Glucoside] .
**A:** Not met

**Q:** State whether 20000 exceeds av puncta recorded for O=C(O)c1cc(O)c2cccc(O)c2n1 [Xanthurenic acid] .
**A:** Not met

**Q:** State whether 20000 exceeds av puncta recorded for COC(=O)c1c2c(c3ccccc3c1O)OC(C)(C)C=C2 [Mollugin] .
**A:** Not met

**Q:** State whether 20000 exceeds av puncta recorded for C/C=C/c1cc(OC)c2c(c1)C(C)C(c1ccc(O)c(OC)c1)O2 (stereo not drawn) [Dehydrodiisoeugenol] .
**A:** Not met

----------
Target: tau (Homo sapiens)
Assay: MCE Phenols Library screening, tau biosensor cell seeding assay (AvZ)
Type: cell-based
Details: average of raw data 1 and 2
Consider the following compounds; for each one, report its av puncta.
Answers are plain numbers.

Past entries and their recorded results:
Compound	Parameter measured	Measured result
COC(=O)/C=C/c1ccc(O)cc1 [(E)-Methyl 4-coumarate]	av puncta	20459.1
N[C@@H](Cc1ccc(O)c([N+](=O)[O-])c1)C(=O)O [3-Nitro-L-tyrosine]	av puncta	32750.4
COc1cc2c(CCNC(C)=O)c[nH]c2cc1O [6-Hydroxymelatonin]	av puncta	19759.2
O=C(/C=C/c1ccc(O)c(O)c1)O[C@H]1[C@H](O)C[C@](O)(C(=O)O)C[C@H]1O [Cryptochlorogenic acid]	av puncta	27449.5
CCOC(=O)c1cc(O)c(O)c(O)c1 [Ethyl gallate]	av puncta	10837.2

For each of the items listed, what is its av puncta?
1. CCc1c(Cl)c(O)c(Cl)c(O)c1C(=O)O[C@H]1[C@H](O)[C@H](OC)[C@H](OC/C2=C\C=C\C[C@H](O)/C(C)=C/[C@H](CC)[C@@H](O[C@@H]3OC(C)(C)[C@@H](OC(=O)C(C)C)[C@H](O)[C@@H]3O)/C(C)=C/C(C)=C/C[C@@H]([C@@H](C)O)OC2=O)O[C@@H]1C [Fidaxomicin]
2. COc1c(O)cc2occ(-c3ccc(O)cc3)c(=O)c2c1O [Tectorigenin]
3. COc1ccc(-c2oc3c(CC=C(C)C)c(O[C@@H]4O[C@H](CO)[C@@H](O)[C@H](O)[C@H]4O)cc(O)c3c(=O)c2O[C@@H]2O[C@@H](C)[C@H](O)[C@@H](O)[C@H]2O[C@@H]2OC[C@@H](O)[C@H](O)[C@H]2O)cc1 [Epimedin B]

**A:**
1: 25523.7; 2: 18839.4; 3: 24278.7

For each of the items listed, what is its av puncta?
1. O=c1cc(-c2ccc(O)cc2)oc2cc(O)c([C@@H]3O[C@H](CO)[C@@H](O)[C@H](O)[C@H]3O)c(O)c12 [Isovitexin]
2. C[C@@H]1O[C@@H](OC[C@H]2O[C@@H](OCCc3ccc(O)c(O)c3)[C@H](O)[C@@H](OC(=O)/C=C/c3ccc(O)c(O)c3)[C@@H]2O)[C@H](O)[C@H](O)[C@H]1O [Forsythoside I]
3. OC[C@H]1O[C@@H](Oc2cc3c(O)cc(O)cc3[o+]c2-c2ccc(O)c(O)c2)[C@H](O)[C@@H](O)[C@H]1O.[Cl-] [Cyanidin-3-O-galactoside (chloride)]

**A:**
1: 34727.5; 2: 9388.55; 3: 3972.36

For each of the items listed, what is its av puncta?
1. O=c1cc(-c2ccc(O)cc2)oc2cc(O)ccc12 [7,4'-Dihydroxyflavone]
2. COc1ccc(-c2coc3cc(O)c(OC)c(O)c3c2=O)cc1 [Irisolidone]

**A:**
1. 23112.9
2. 29224.4

**Q:** Provide the documented av puncta with tau (Homo sapiens) as the system for O=c1ccc2ccc(O)cc2o1 [Umbelliferone]
**A:** 9095.02
